# TESTED SYSTEM: T1, human IL-12Rβ2 (human, UniProt Q99665 24-862)
# T1 construct: Expressed on HEK293T cells transiently transfected with a pcDNA3 plasmid (Genscript clone OHu21785); also called hIL-12RB2; IL-12 receptor β2 subunit
# T1 sequence: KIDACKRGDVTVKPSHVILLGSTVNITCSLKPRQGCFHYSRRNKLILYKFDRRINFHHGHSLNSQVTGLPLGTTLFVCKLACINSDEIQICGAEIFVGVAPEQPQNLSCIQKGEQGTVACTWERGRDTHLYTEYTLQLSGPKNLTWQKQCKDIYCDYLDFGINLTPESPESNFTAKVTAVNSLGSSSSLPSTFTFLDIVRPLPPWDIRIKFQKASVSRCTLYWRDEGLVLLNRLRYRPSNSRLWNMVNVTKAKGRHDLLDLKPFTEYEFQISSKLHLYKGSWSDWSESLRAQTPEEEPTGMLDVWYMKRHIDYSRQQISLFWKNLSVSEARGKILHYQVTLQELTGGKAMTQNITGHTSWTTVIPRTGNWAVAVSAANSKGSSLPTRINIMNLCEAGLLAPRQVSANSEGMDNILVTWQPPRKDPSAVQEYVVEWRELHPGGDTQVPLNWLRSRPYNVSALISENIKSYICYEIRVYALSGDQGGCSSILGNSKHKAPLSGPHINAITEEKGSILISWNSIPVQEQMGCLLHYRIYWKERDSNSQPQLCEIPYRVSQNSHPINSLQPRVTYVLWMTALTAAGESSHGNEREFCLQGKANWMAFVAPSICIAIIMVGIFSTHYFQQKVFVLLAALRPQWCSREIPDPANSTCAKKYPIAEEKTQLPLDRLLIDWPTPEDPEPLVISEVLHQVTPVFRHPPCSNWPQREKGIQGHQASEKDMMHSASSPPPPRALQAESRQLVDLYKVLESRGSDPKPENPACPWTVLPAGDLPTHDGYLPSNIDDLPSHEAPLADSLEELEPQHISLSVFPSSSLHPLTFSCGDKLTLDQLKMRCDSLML
# PROTOCOL: flow cytometry, P.E. on transfected HEK293T cells
PARAMETER MEASURED: % cells bound (%)
Express the result in % but write the number alone.

| BINDER | % cells bound, % |
| --- | --- |
| anti-IL-12Rβ2 VHH clone 3CRHS55 (VHH, not shown: small tags and cut ends, periplasmic extract) VHH: QVQLQESGGGLVQAGGSLNLSCTASGSIISIYNMDWYRQAPGNQREWVASITSNGDSYYDGSAKGRFTISRDNAKMTVYLQMNSLKPEDTAVYYCKVPTENGNYWGQGTQVTVSS | 40.5 |

Ask: Request the reported % cells bound associated with anti-IL-12Rβ2 VHH clone 3CRHS166 (VHH, not shown: small tags and cut ends, periplasmic extract) VHH: QVQLQESGGGLVQSGGSLRLSCVSSQTLVGIEAMGWYRQAPGKQRELVALITLNGGTFYADSVKGRFTISRDVAEHMLYLEMNSLNPEDTAVYFCVAGVESDNEEPTYWGQGTQVTVSS
Reply: 2.11

Ask: Request the reported % cells bound associated with anti-IL-12Rβ2 VHH clone 3CRH64 (VHH, not shown: small tags and cut ends, periplasmic extract) VHH: QVQLQESGGGLVQAGGSLRLSCTASGHTFSRYTTIGWFRQAPGKDREFVAAIRWSGDITDYADAVKGRFTISRDNVKNTVYLQTNSLNPEDTAVYYCARGYSEYGVLSRNRGLYAYWGQGTQVTVSS
Reply: 31

Ask: Request the reported % cells bound associated with anti-IL-12Rβ2 VHH clone 3CRHM18 (VHH, not shown: small tags and cut ends, periplasmic extract) VHH: QVQLQESGGGLVQDGGSLRLSCAASGRTFSNYAMAWFRQAPGTEREFVAGLSGSGGDTAFYDNSVMGRFTISRDSAKNTMWLQINNLKPEDTAVYYCAAATHVVVSYGLVRKRGTYDYWGQGTQVTVSS
Reply: 36.7
